Values compiled from ChEMBL document CHEMBL1157857.

- Tested on: Pseudomonas aeruginosa
- testMethodNotes: Antibacterial activity against Pseudomonas aeruginosa at 2 mg/ml after 24 hrs by agar diffusion method
- Type: functional
- conditionSummary: read-out: DIZ
Here the recorded zone of inhibition at 2000 µg/mL is given for each entry.

{"entrySmiles": "Cc1c(N/C(Nc2ccccc2)=C(\\C#N)C(=O)Nc2ccc3c(c2)C(=O)c2ccccc2C3=O)c(=O)n(-c2ccccc2)n1C", "zone of inhibition at 2000 µg/mL / mm": 22}
{"entrySmiles": "CN(C)/C=C(\\C#N)C(=O)Nc1ccc2c(c1)C(=O)c1ccccc1C2=O", "zone of inhibition at 2000 µg/mL / mm": 14}
{"entrySmiles": "COc1ccc(-c2ccnc3c(C(=O)Nc4ccc5c(c4)C(=O)c4ccccc4C5=O)c(Nc4ccccc4)nn23)cc1", "zone of inhibition at 2000 µg/mL / mm": 20}
{"entrySmiles": "O=C1c2ccccc2C(=O)c2cc(-n3cnc4n[nH]c(Nc5ccccc5)c4c3=O)ccc21", "zone of inhibition at 2000 µg/mL / mm": 20}
